Tested on: 857933-349-R-J2-PDC complex spheroids, viability
protocol text: Anticancer human tumor 857933-349-R-J2-PDC patient-derived colon adenocarcinoma cell line growth inhibition [GQUAD]
conditions: second compound 3.16 µM; first compound 3.16 µM; hits give low values
endpoint label: viability, T/C (%)
Record the value in %, omitting the unit from your answer.

compound	endpoint label	test result
COc1cc(C2c3cc4c(cc3C(OC3OC5COC(C)OC5C(O)C3O)C3COC(=O)C23)OCO4)cc(OC)c1O (stereo not given) + CN(C)c1ccc(Nc2c3ccc(NC(=O)CCN4CCCC4)cc3nc3cc(NC(=O)CCN4CCCC4)ccc23)cc1	viability, T/C	60.9
CC1COCCN1c1cc(C2(O)CC3CCC(C2)O3)c2cnn(-c3ccn[nH]3)c2n1 (stereo not given) + CN(C)c1ccc(Nc2c3ccc(NC(=O)CCN4CCCC4)cc3nc3cc(NC(=O)CCN4CCCC4)ccc23)cc1	viability, T/C	59.4
O=C(c1cc(Cc2n[nH]c(=O)c3ccccc23)ccc1F)N1CCN(C(=O)C2CC2)CC1 + Cc1cnc(CNC(=O)c2c(=O)c3ccc(N4CCCN(C)CC4)nc3n3c2sc2ccccc23)cn1	viability, T/C	2.59
CC1COCCN1c1cc(-c2ccnn2C)c2ccnc(-c3ccn[nH]3)c2n1 (stereo not given) + Cc1cnc(CNC(=O)c2c(=O)c3ccc(N4CCCN(C)CC4)nc3n3c2sc2ccccc23)cn1	viability, T/C	2.42

Now for a further compound.
Memo: O=C(c1cc(Cc2n[nH]c(=O)c3ccccc23)ccc1F)N1CCN(C(=O)C2CC2)CC1 + CN(C)c1ccc(Nc2c3ccc(NC(=O)CCN4CCCC4)cc3nc3cc(NC(=O)CCN4CCCC4)ccc23)cc1 , reported viability, T/C: 93.4

====

Test system: 857933-349-R-J2-PDC complex spheroids, viability
protocol text: Anticancer human tumor 857933-349-R-J2-PDC cell line growth inhibition [GQUAD];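 also: spheroids exposed to compounds for one week before readout; percent viability relative to vehicle DMSO wells taken as 100%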
conditions: second compound 0.1 µM; first compound 1 µM; hits give low values
endpoint label: viability, T/C (%)
Report the figure in % without appending any unit label.

compound	viability, T/C, %
Cc1cccc(N(C)C(=O)C2C(O)CCN2c2nc(C)cc(C(F)(F)F)c2C#N)c1 (stereo not given) + Cc1[nH]c2ccc(F)cc2c1-c1nc2c3cccnc3c3ncccc3c2[nH]1	97.9
O=C(c1cc(Cc2n[nH]c(=O)c3ccccc23)ccc1F)N1CCN(C(=O)C2CC2)CC1 + Cc1cnc(CNC(=O)c2c(=O)c3ccc(N4CCCN(C)CC4)nc3n3c2sc2ccccc23)cn1	58.4

The reported value for Nc1ccn(C2OC(CO)C(O)C2(F)F)c(=O)n1 (stereo not given) + Cc1[nH]c2ccc(F)cc2c1-c1nc2c3cccnc3c3ncccc3c2[nH]1 in terms of viability, T/C is 13.4

get_value(item= C=CCn1c(=O)c2cnc(Nc3ccc(N4CCN(C)CC4)cc3)nc2n1-c1cccc(C(C)(C)O)n1 + CN(C)c1ccc(Nc2c3ccc(NC(=O)CCN4CCCC4)cc3nc3cc(NC(=O)CCN4CCCC4)ccc23)cc1 , readout=viability, T/C) returns 68.6

The recorded viability, T/C for CC(C)(O)C1CCC(Nc2ccc3ncc(-c4cccc(C(F)(F)F)c4)n3n2)CC1 (stereo not given) + CN(C)c1ccc(Nc2c3ccc(NC(=O)CCN4CCCC4)cc3nc3cc(NC(=O)CCN4CCCC4)ccc23)cc1 is 35.6

====

System: 857933-349-R-J2-PDC complex spheroids, viability
protocol text: Anticancer human tumor 857933-349-R-J2-PDC cell line growth inhibition [GQUAD];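 also: spheroids exposed to compounds for one week before readout; percent viability relative to vehicle DMSO wells taken as 100%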
conditions: second compound 0.316 µM; first compound 0.316 µM; hits give low values
In this section, each of the compounds is paired with its reported viability, T/C.
// return numeric value only (unit: %, not printed)

Recorded results for 2 compounds are shown here.
compound	target under test	viability, T/C / %
Nc1ccn(C2OC(CO)C(O)C2(F)F)c(=O)n1 (stereo not drawn) + Cc1cnc(CNC(=O)c2c(=O)c3ccc(N4CCCN(C)CC4)nc3n3c2sc2ccccc23)cn1	857933-349-R-J2-PDC complex spheroids, viability	10.9
C=CCn1c(=O)c2cnc(Nc3ccc(N4CCN(C)CC4)cc3)nc2n1-c1cccc(C(C)(C)O)n1 + CN(C)c1ccc(Nc2c3ccc(NC(=O)CCN4CCCC4)cc3nc3cc(NC(=O)CCN4CCCC4)ccc23)cc1	857933-349-R-J2-PDC complex spheroids, viability	101

Pending compound:
viability, T/C recorded for this compound, O=c1[nH]cc(F)c(=O)[nH]1 + Cc1[nH]c2ccc(F)cc2c1-c1nc2c3cccnc3c3ncccc3c2[nH]1 , is 94

====

Documented viability, T/C across a set of molecules
Tested on: 857933-349-R-J2-PDC complex spheroids, viability
protocol text: Anticancer human tumor 857933-349-R-J2-PDC cell line growth inhibition [GQUAD];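 also: spheroids exposed to compounds for one week before readout; percent viability relative to vehicle DMSO wells taken as 100%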
conditions: second compound 10 µM; first compound 0.0316 µM; hits give low values
All answers are understood in %, so give the number only.

Below are worked cases with known answers.
molecule	target under test	unit symbol	test result
Cn1ncnc1[C@H]1c2n[nH]c(=O)c3cc(F)cc(c23)N[C@@H]1c1ccc(F)cc1 + Cc1cnc(CNC(=O)c2c(=O)c3ccc(N4CCCN(C)CC4)nc3n3c2sc2ccccc23)cn1	857933-349-R-J2-PDC complex spheroids, viability	%	2.68
Nc1ccn(C2OC(CO)C(O)C2(F)F)c(=O)n1 (configuration not stated) + Cc1[nH]c2ccc(F)cc2c1-c1nc2c3cccnc3c3ncccc3c2[nH]1	857933-349-R-J2-PDC complex spheroids, viability	%	73
CC[C@@]1(O)C(=O)OCc2c1cc1n(c2=O)Cc2cc3c(CN(C)C)c(O)ccc3nc2-1 + CN(C)c1ccc(Nc2c3ccc(NC(=O)CCN4CCCC4)cc3nc3cc(NC(=O)CCN4CCCC4)ccc23)cc1	857933-349-R-J2-PDC complex spheroids, viability	%	69.9
C#Cc1c(F)ccc2cc(O)cc(-c3ncc4c(N5CC6CCC(C5)N6)nc(OCC56CCCN5CC(F)C6)nc4c3F)c12 (configuration not stated) + Cc1[nH]c2ccc(F)cc2c1-c1nc2c3cccnc3c3ncccc3c2[nH]1	857933-349-R-J2-PDC complex spheroids, viability	%	90.4
CC1COCCN1c1cc(-c2ccnn2C)c2ccnc(-c3ccn[nH]3)c2n1 (configuration not stated) + Cc1cnc(CNC(=O)c2c(=O)c3ccc(N4CCCN(C)CC4)nc3n3c2sc2ccccc23)cn1	857933-349-R-J2-PDC complex spheroids, viability	%	1.03
COc1ncnc(C2CC2)c1-c1ncc2cnn(Cc3ccc(-c4nc(C(F)(F)F)cn4C(C)C)cc3)c2n1 + CN(C)c1ccc(Nc2c3ccc(NC(=O)CCN4CCCC4)cc3nc3cc(NC(=O)CCN4CCCC4)ccc23)cc1	857933-349-R-J2-PDC complex spheroids, viability	%	64.6
CC(C)(O)C1CCC(Nc2ccc3ncc(-c4cccc(C(F)(F)F)c4)n3n2)CC1 (configuration not stated) + CN(C)c1ccc(Nc2c3ccc(NC(=O)CCN4CCCC4)cc3nc3cc(NC(=O)CCN4CCCC4)ccc23)cc1	857933-349-R-J2-PDC complex spheroids, viability	%	62.9
CC[C@@]1(O)C(=O)OCc2c1cc1n(c2=O)Cc2cc3c(CN(C)C)c(O)ccc3nc2-1 + Cc1cnc(CNC(=O)c2c(=O)c3ccc(N4CCCN(C)CC4)nc3n3c2sc2ccccc23)cn1	857933-349-R-J2-PDC complex spheroids, viability	%	2.78
C=CCn1c(=O)c2cnc(Nc3ccc(N4CCN(C)CC4)cc3)nc2n1-c1cccc(C(C)(C)O)n1 + Cc1cnc(CNC(=O)c2c(=O)c3ccc(N4CCCN(C)CC4)nc3n3c2sc2ccccc23)cn1	857933-349-R-J2-PDC complex spheroids, viability	%	0.17
C=CCn1c(=O)c2cnc(Nc3ccc(N4CCN(C)CC4)cc3)nc2n1-c1cccc(C(C)(C)O)n1 + Cc1[nH]c2ccc(F)cc2c1-c1nc2c3cccnc3c3ncccc3c2[nH]1	857933-349-R-J2-PDC complex spheroids, viability	%	86.1

Moving on to another molecule below.
The molecule O=c1[nH]cc(F)c(=O)[nH]1 + Cc1cnc(CNC(=O)c2c(=O)c3ccc(N4CCCN(C)CC4)nc3n3c2sc2ccccc23)cn1 on 857933-349-R-J2-PDC complex spheroids, viability: viability, T/C was 1.93

====

System: 857933-349-R-J2-PDC complex spheroids, viability
protocol text: Anticancer human tumor 857933-349-R-J2-PDC cell line growth inhibition [GQUAD]; active = viability on the fitted dose curve at most 10% of control; inactive = the rest;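 also: spheroids exposed to compounds for one week before readout; percent viability relative to vehicle DMSO wells taken as 100%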
conditions: second compound 10 µM; first compound 0.00999 µM
Description: DNA G-quadruplex Stabilizer Agents in Combinations in Complex Spheroids A high-throughput screen of multi-cell type tumor spheroids was designed to identify active combinations of DNA G-quadruplex stabilizer agents and targeted small molecules. […] Compounds. […] If the clinical Cmax for an agent had not been determined, the highest concentration tested was 10 microM. […]
Pick from active, inactive when you respond.

Study these solved cases before continuing.
compound	group
Cc1[nH]c2ccccc2c1CCNCc1ccc(/C=C/C(=O)NO)cc1 + Cc1cnc(CNC(=O)c2c(=O)c3ccc(N4CCCN(C)CC4)nc3n3c2sc2ccccc23)cn1	active
CCc1c2c(nc3ccc(O)cc13)-c1cc3c(c(=O)n1C2)COC(=O)[C@]3(O)CC + CN(C)c1ccc(Nc2c3ccc(NC(=O)CCN4CCCC4)cc3nc3cc(NC(=O)CCN4CCCC4)ccc23)cc1	inactive

Field: outcome | Entry: CC[C@@]1(O)C(=O)OCc2c1cc1n(c2=O)Cc2cc3c(CN(C)C)c(O)ccc3nc2-1 + Cc1[nH]c2ccc(F)cc2c1-c1nc2c3cccnc3c3ncccc3c2[nH]1
inactive

GET /call?item= Cn1ncnc1[C@H]1c2n[nH]c(=O)c3cc(F)cc(c23)N[C@@H]1c1ccc(F)cc1 + CN(C)c1ccc(Nc2c3ccc(NC(=O)CCN4CCCC4)cc3nc3cc(NC(=O)CCN4CCCC4)ccc23)cc1 returns the recorded outcome of this test.
inactive

Name the outcome recorded for CCc1c2c(nc3ccc(O)cc13)-c1cc3c(c(=O)n1C2)COC(=O)[C@]3(O)CC + Cc1cnc(CNC(=O)c2c(=O)c3ccc(N4CCCN(C)CC4)nc3n3c2sc2ccccc23)cn1 in the assay.
active

Can you look up the reported call for CCc1c2c(nc3ccc(O)cc13)-c1cc3c(c(=O)n1C2)COC(=O)[C@]3(O)CC + Cc1[nH]c2ccc(F)cc2c1-c1nc2c3cccnc3c3ncccc3c2[nH]1 for me?
inactive
